Hello, the source for this data is the supplement of paper PMC10567573, in case you need it.

B1: ADD1 (parent)
chain: GEGTGSPPKWQIGEQEFEALMRML

# Variants of: B1
# RUN_DESCRIPTION: protein stability index of a GFP-peptide fusion (GPS, HEK-293T) (PSI 1-6); higher = more stable;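 further: lentivirally expressed fusions sorted by FACS into six bins by GFP to DsRed ratio, PSI derived from sequencing read proportions per bin multiplied by bin number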
# CONDITION_SET: c terminus: a fixed tail appended
REPORTED_ENDPOINT: protein stability index
Reply with just the number.

   mutant_code  observed_measurement
0          G3V                  3.41
1         L24R                  4.34
2         E16G                   2.5

Query: Any idea what protein stability index was measured for M21H ?
Reply: 4.16

Query: Name the recorded protein stability index for A19E .
Reply: 4.04

Query: Entry Q15S : reported protein stability index = ?
Reply: 3.13
